Below are Ki values for Muscarinic acetylcholine receptor M5 (Homo sapiens, UniProt P08912) collected from several publications.
Decide using Ki alone. Strictly below 100 nM: 1 (yes). Equal to or above 100 nM: 0 (no).

Query: For this compound, is Ki lower than 100 nM? "CN(C)CCOC(=O)C1=C(Cc2cccnc2)c2ccccc2C1"
Reply: 0 (no)

Query: Here's an entry: "COc1ccccc1CN1CCC(C2CCN(CCCCCCCCN3CCC(C4CCN(Cc5ccccc5OC)CC4)CC3)CC2)CC1" . Is its Ki below 100 nM?
Reply: 0 (no)

Query: Is the reported Ki for "CC1(C)C(/C=C/C=C/C=C2/N(CCCCCC(=O)NCc3cc(C(=O)NCCNC(=O)CCc4cn(CCCCC5CCN(CC(=O)N6c7ccccc7NC(=O)c7ccccc76)CC5)cn4)cc(C(=O)NCCNC(=O)CCc4cn(CCCCC5CCN(CC(=O)N6c7ccccc7NC(=O)c7ccccc76)CC5)cn4)c3)c3ccc(S(=O)(=O)O)cc3C2(C)C)=[N+](CCCCS(=O)(=O)[O-])c2ccccc21.O=C(O)C(F)(F)F.O=C(O)C(F)(F)F.O=C(O)C(F)(F)F" strictly below 100 nM?
Reply: 0 (no)

Query: Is the reported Ki for "CN(C)CCC1=C(Cc2ccncc2)c2ccccc2C1" strictly below 100 nM?
Reply: 0 (no)

Query: Determine whether this compound shows Ki lower than 100 nM (ties excluded): "C[N+]1=C(/C=C/C=C/C=C2/N(CCCCCC(=O)NCCN3CCN(CCCCC4CCN(CC(=O)N5c6ccccc6NC(=O)c6ccccc65)CC4)CC3)c3ccccc3C2(C)C)C(C)(C)c2ccccc21"
Reply: 1 (yes)

Query: Item C[N+](C)(C)C[C@@H]1COC[C@H](C(c2ccccc2)c2ccccc2)O1 (relative stereo) : Ki beneath 100 nM, strictly?
Reply: 0 (no)

Query: Would you kindly verify if Ki of "c1ccc(-c2ccc(N3CCN(Cc4c[nH]c5ncccc45)CC3)cc2)cc1" is strictly less than 100 nM?
Reply: 0 (no)

Query: Check if Ki falls below 100 nM for "CN1CCC=C(c2nsnc2OCCCCCCCCCOc2nsnc2C2=CCCN(C)C2)C1" .
Reply: 1 (yes)

Query: Please indicate whether the reported Ki of "COc1ccc(CCN(C(=O)OC2CCN(C)CC2)c2ccccc2)cc1OC" is strictly below 100 nM.
Reply: 0 (no)

Query: Threshold test, Ki < 100 nM: "N=C(N)NCCC[C@@H](N)C(=O)NCCN1CCN(CCCC2CCN(CC(=O)N3c4ccccc4NC(=O)c4ccccc43)CC2)CC1"
Reply: 0 (no)

Query: For "O=C1CCc2ccccc2N1CCCN1CCC(CCCCCCCCCC2CCN(CCCN3C(=O)CCc4ccccc43)CC2)CC1" , is the recorded Ki below the cut-off of 100 nM?
Reply: 1 (yes)

Query: Dear colleague, could you confirm whether Ki of "CN1CCC[C@H]1[C@@H]1CNC(=O)O1" falls below 100 nM? Thanks.
Reply: 0 (no)

Query: For this compound, is Ki lower than 100 nM? "CCC(=O)NCc1cc(C(=O)NCCNC(=O)CCc2cn(CCCCC3CCN(CC(=O)N4c5ccccc5NC(=O)c5ccccc54)CC3)cn2)cc(C(=O)NCCNC(=O)CCc2cn(CCCCC3CCN(CC(=O)N4c5ccccc5NC(=O)c5ccccc54)CC3)cn2)c1.O=C(O)C(F)(F)F.O=C(O)C(F)(F)F.O=C(O)C(F)(F)F.O=C(O)C(F)(F)F"
Reply: 1 (yes)

Query: Consider the compound "CCCCN(CCCC)c1ccc(/C=C/c2cc[n+](CCC[N+](CC)(CC)CC)cc2)cc1" . Is its Ki strictly less than 100 nM?
Reply: 1 (yes)

Query: Lab log: compare recorded Ki with 100 nM; is it strictly lower for "C[N+]1(CCCC(O)(c2ccccc2)c2ccccc2)CCN(c2ccccc2)CC1" ?
Reply: 0 (no)

Query: Determine if C[N+]1(C)CCC[C@@H]1[C@@H]1C[S+]([O-])C(c2ccccc2)(c2ccccc2)O1.[I-] (stereo in doubt; (+)-11) shows Ki strictly lower than 100 nM.
Reply: 0 (no)

Query: In the record for "Cc1cc(C)cc(-c2nc(NC(=O)c3cccnc3)sc2-c2ccncc2)c1" , is Ki less than 100 nM?
Reply: 0 (no)

Query: Decide: Ki of CN1CCC(OC(=O)N(c2ccccc2)c2ccccc2)C1 (stereo unspecified) strictly below 100 nM?
Reply: 0 (no)

Query: Below 100 nM on Ki? Entry "C[N+](C)(C)C[C@@H]1C[S@](=O)[C@@](c2ccccc2)(C2CCCCC2)O1.[I-]"
Reply: 0 (no)

Query: Does the reported Ki of "O=C(NCC1CCNCC1)[C@H]1CCCN1C(=O)[C@@H]1C[C@@H](O)CN1C(=O)CC(c1ccc(F)cc1)(c1ccc(F)cc1)c1ccc(F)cc1" stay below 100 nM?
Reply: 0 (no)

Query: Strictly below 100 nM: is that where Ki of C[N+]1(CCCC(O)(c2ccccc2)c2ccccc2)CCC(C2CC[N+](C)(CCCC(O)(c3ccccc3)c3ccccc3)CC2)CC1 (stereo unspecified) sits?
Reply: 0 (no)
